System: K562
Assay Explanation: NCI tumour cell line growth inhibition, 48 h
Calls of active or inactive are those of the source. Rule as the data show it: active = GI50 up to about 1.1 µM and inactive = higher.
Test Readout: GI50

Guide cases for GI50, answers given:
CC1=NN(C(=O)CC(=O)Nc2ccc(C)cc2)C(=O)C1/N=N/c1ccc(C(=O)O)cc1 (configuration not stated) | > 100 µM (inactive)
CN1CCN(C(=O)c2cn(Cc3cncn3Cc3ccc4c(c3)OCO4)cc2-c2cccc3ccccc23)CC1 | 3.32 µM (inactive)
CNNC1=NS(=O)(=O)c2cc(C(=O)OC)c(Cl)cc2S1 | > 10 µM (inactive)

Asked: Entry under review: CCOC(=O)C(=O)NNc1nc2c(s1)C(=O)c1ccccc1C2=O . Reported GI50?
Given back: 2.3 µM (inactive)

Asked: Value lookup for GI50; key = CN(C)CC1CCC/C(=C\c2ccc(OC(=O)/C=C/c3ccc(Cl)cc3)cc2)C1=O (configuration not stated)
Given back: 1.23 µM (inactive)

Asked: Bench note: what GI50 did O=C(Nc1ccc(Cl)cc1Cl)C(=O)Nn1c(S)nc2ccccc2c1=O show?
Given back: > 100 µM (inactive)

Asked: Look up GI50 for this compound: COc1cc2ccc3c4cc(OC)c(OCc5ccccc5)cc4cnc3c2cc1OC
Given back: > 100 µM (inactive)

Asked: Could you share which GI50 value was measured for O=c1[nH]cc(/N=C/c2cc(Cl)ccc2O)c(=O)[nH]1 ?
Given back: 7.26 µM (inactive)

Asked: GI50 for Cc1ccc(S(=O)(=O)NCCCSCCSCCCN)cc1 ?
Given back: > 100 µM (inactive)

Asked: Returns the measured GI50 for the input compound. Input: Cc1cccc(NC2=NCCO2)c1Cl
Given back: > 100 µM (inactive)

Asked: GI50 lookup needed for C[n+]1c2ccccc2c(C(=O)Nc2ccc(S(=O)(=O)Nc3ncccn3)cc2)c2ccccc21 , thanks.
Given back: 97.5 µM (inactive)

Asked: So what's the measured GI50 for this one? CS(=O)(=O)OCCN1CCC2(CC1)SSC1(CCN(CCOS(C)(=O)=O)CC1)S2
Given back: 64.4 µM (inactive)

Asked: Could you tell me which GI50 is on file for O=C1c2ccccc2C2C1C(c1ccccc1)C1(Cc3ccccc3C1=O)C2c1ccccc1 (configuration not stated) ?
Given back: 5.53 µM (inactive)

Asked: What does the data say about its GI50? Entry: Cn1c(N)[n+](C(=O)OCc2ccccc2)c(=O)c2c1ncn2C(=O)OCc1ccccc1
Given back: > 100 µM (inactive)

Asked: # input compound: N#COc1ccc(Oc2ccc(OC#N)cc2)cc1 ; wanted: its GI50
Given back: 36.7 µM (inactive)

Asked: If you can, please state the reported GI50 value of COC(=NCCC1=CCCCC1)OC .
Given back: 36 µM (inactive)

Asked: Form field: reported GI50 of CC(C)NC(=O)OCc1c2c(n(C)c1COC(=O)NC(C)C)-c1ccccc1CC2
Given back: 4.26 µM (inactive)

Asked: Could you share which GI50 value was measured for COC(=O)C1=C(C)NC(C)=C(C(=O)OC)C1c1ccc(/[N+]([O-])=C/c2ccccc2)cc1 ?
Given back: 23.6 µM (inactive)

Asked: What value of measured GI50 is listed for Cc1ccc2c(O)cc(-c3sc4ccccc4c3C)nc2n1 ?
Given back: 27.1 µM (inactive)

Asked: # lookup: GI50 of NC1CCCCC1.O=C(CP(=O)(O)O)NC(CC(=O)OCc1ccccc1)C(=O)OCc1ccccc1 (configuration not stated)
Given back: > 100 µM (inactive)

Asked: Given the compound CC(=O)CC(=O)CCC(=O)O , what is its reported GI50?
Given back: > 100 µM (inactive)

Asked: Any idea what its GI50 is? The compound is N#Cc1c(C#N)c(-c2ccccc2)n(/N=C\c2ccccc2)c1N
Given back: 13.2 µM (inactive)

Origin of values: ChEMBL document CHEMBL1201862
